Provide the reported solubility of each item.
protocolSummary: Solubility of esters in benzyl alcohol / benzyl benzoate / oil mixtures
Format: physicochemical
measurementSetup: benzyl alcohol / benzyl benzoate / apricot oil mixture, 14 °C, oil or lipid, thermodynamic from solid, 2% benzyl alcohol, 20% benzyl benzoate, 78% apricot oil; 14 °C; average of three measurements; read-out: Solubility APRICOT
Note: unit mg/mL is implicit; provide only the numeric part.

Task: Query: solubility; subject: C[C@]12CC[C@H]3[C@@H](CCC4=CC(=O)CC[C@@]43C)[C@@H]1CC[C@@H]2OC(=O)CCC1CCCC1
Result: 238

Task: Query: solubility; subject: CCCCCCCCCC(=O)OC1CCC2C3CCC4=CC(=O)CCC4(C)C3CCC12C (stereo not drawn) [TDec, Androst-4-en-17β-ol-3-one 17β-decanoate]
Result: 537

* * *

Provide the reported solubility of each item.
protocolSummary: Solubility of esters in benzyl alcohol / benzyl benzoate / oil mixtures
Type: physicochemical
measurementSetup: benzyl alcohol / benzyl benzoate / castor oil mixture, 14 °C, oil or lipid, thermodynamic from solid, 2% benzyl alcohol, 20% benzyl benzoate, 78% castor oil; 14 °C; average of three measurements; read-out: Solubility CASTOR
Give the number first and the unit second.

Task: Query: solubility; subject: C[C@]12CC[C@H]3[C@@H](CCC4=CC(=O)CC[C@@]43C)[C@@H]1CC[C@@H]2OC(=O)CCC1CCCC1 [TCyp]
Result: 287 mg/mL

Task: Query: solubility; subject: CCCCCCCCCC(=O)OC1CCC2C3CCC4=CC(=O)CCC4(C)C3CCC12C (stereo not drawn) [TDec, Androst-4-en-17β-ol-3-one 17β-decanoate]
Result: 530 mg/mL

* * *

protocolSummary: Solubility of esters in benzyl alcohol / benzyl benzoate / oil mixtures
Format: physicochemical
measurementSetup: benzyl alcohol / benzyl benzoate / grape seed oil mixture, 14 °C, oil or lipid, thermodynamic from solid, 2% benzyl alcohol, 20% benzyl benzoate, 78% grape seed oil; 14 °C; average of three measurements; read-out: Solubility GSO
valueType: solubility (mg/mL)
Note: unit mg/mL is implicit; provide only the numeric part.

Task: Query: solubility; subject: CCCCCCCCCC(=O)OC1CCC2C3CCC4=CC(=O)CCC4(C)C3CCC12C (stereo not drawn) [TDec, Androst-4-en-17β-ol-3-one 17β-decanoate]
Result: 497

Task: Query: solubility; subject: C[C@]12CC[C@H]3[C@@H](CCC4=CC(=O)CC[C@@]43C)[C@@H]1CC[C@@H]2OC(=O)CCC1CCCC1
Result: 239

* * *

Provide the reported solubility of each item.
protocolSummary: Solubility of esters in benzyl alcohol / benzyl benzoate / oil mixtures
Assay type: physicochemical
measurementSetup: benzyl alcohol / benzyl benzoate / sesame oil mixture, 14 °C, oil or lipid, thermodynamic from solid, 2% benzyl alcohol, 20% benzyl benzoate, 78% sesame oil; 14 °C; average of three measurements; read-out: Solubility SESAME
Note: unit mg/mL is implicit; provide only the numeric part.

Task: Query: solubility; subject: CCCCCCCCCC(=O)OC1CCC2C3CCC4=CC(=O)CCC4(C)C3CCC12C (stereo not drawn) [TDec, Androst-4-en-17β-ol-3-one 17β-decanoate]
Result: 549

Task: Query: solubility; subject: C[C@]12CC[C@H]3[C@@H](CCC4=CC(=O)CC[C@@]43C)[C@@H]1CC[C@@H]2OC(=O)CCC1CCCC1
Result: 278

* * *

protocolSummary: Solubility of esters in benzyl alcohol / benzyl benzoate / oil mixtures
Type: physicochemical
measurementSetup: 14 °C, oil or lipid, thermodynamic from solid, 2% benzyl alcohol, 20% benzyl benzoate, 78% medium-chain triglyceride; 14 °C; average of three measurements; read-out: Solubility MCT
Provide the reported solubility of each item.
Give the number first and the unit second.

Task: Query: solubility; subject: CCCCCCCCCC(=O)OC1CCC2C3CCC4=CC(=O)CCC4(C)C3CCC12C (stereo not drawn) [TDec, Androst-4-en-17β-ol-3-one 17β-decanoate]
Result: 597 mg/mL

Task: Query: solubility; subject: C[C@]12CC[C@H]3[C@@H](CCC4=CC(=O)CC[C@@]43C)[C@@H]1CC[C@@H]2OC(=O)CCC1CCCC1 [TCyp]
Result: 257 mg/mL
